Substrate: BHET
conditions used: 120 h
readout: plate clearing

| protein | readout | data value |
| --- | --- | --- |
| unnamed (protein) MKTTALRIKGLSIAAAIALSTLAPAAFSQTSPPTSASLNATSGPLSVSTASVFLPVGFGGGTIYYPTVAGKYGVIAISPGFTATESSIAWLGRRIATHGFVVITLNTNTTLDQPDSRATQLMAALRYVLNSSGSAVRARIDPTRLAVAGHSMGGGGSLIAARDNPTLKASYPMTPWNISSNFSTVRVPTMIIGADGDTIAPVASHARPFYASLPSSTLKAYGELNGATHFAPNTTNTPIGRYAVTWMKRFVDGDTRYSPFLCGAQHTSYATSRIFDRYNQNCPY | plate clearing | not clears the plate |
| unnamed (protein) MFNIRKVAVAASVLLVSMAASAQYQKGPNPTASALERTGSFSTGSSSVSSLSASGFGGGNLYYPTASGTYGAIALCPGFTATSSSLAWLGPRLASHGFVVLIIDTNSTLDQPDSRGRQLKAATDYLVAQNSRTGSPIRGKVDTSRLAVGGHSMGGGGTLEAIRDNPSYKAGMPLAPWNTTKSFSRITVPTLIIGGSADTVAPDGSHSIPFYTSIPSSTAKIFMELRGGSHFFPQTSDPNVSRFAISWYKRWLDLDTRYSTFLNTRPSTTAVSDFRVSRTF | plate clearing | not clears the plate |
| unnamed (protein) MKSFLKKIYLGTGMLLVSANALSYTPAPTPNPTPITTPVECQDDCDFSRGPNPTSSSIEGVGPYSVATQNVPSSVSGFGGGTIHYPRGISGTVGAIAVVPGFVSPESSIIWWGPRLASHGFVVITIATNSIFDQPASREAQLGRALDYVINQNNSSNSPISGLVDTSRLGAMGWSMGGGGSLRLASGDRLSAVIPLAPWNEGSRGFRQLETPTLVIACERDLIAPVGVHASPFYNAIPSTTDKAFLEVNNGSHSCANGGGINGGLLSKYGVSWMKRFIDNDTRYQQFLCGPNHAANPAISEYRDTCNY | plate clearing | not clears the plate |
